Origin of measurements: paper PMC6018403

# runDescription: Multi-component pharmacokinetic study of GQD, GQD-GC and single herb extracts in rats (plasma, LC/MS/MS)
# Type: in vivo, Sprague-Dawley rats
# measurementSetup: male, Sprague-Dawley, rat; HQ (Huang-Qin) group: rats, oral extract 3.54 g/kg, plasma; read-out: Cmax
endpoint: Cmax (ng/mL)

{"molecule": "COc1c(O)c(O[C@@H]2O[C@H](C(=O)O)[C@@H](O)[C@H](O)[C@H]2O)cc2oc(-c3ccccc3)cc(=O)c12 [Compound 38, lateriflorein 7-O-glucuronide]", "valueMeasured": 213}
{"molecule": "O=c1cc(-c2ccccc2)oc2cc(O)c(O)c(O)c12", "valueMeasured": 3.46}
{"molecule": "O=C(O)[C@H]1O[C@@H](Oc2cc3oc(-c4ccccc4)cc(=O)c3c(O)c2O)[C@H](O)[C@@H](O)[C@@H]1O", "valueMeasured": 4040}

---

# runDescription: Multi-component pharmacokinetic study of GQD, GQD-GC and single herb extracts in rats (plasma, LC/MS/MS)
# Format: in vivo, Sprague-Dawley rats
# measurementSetup: male, Sprague-Dawley, rat, plasma, po, 16.5 g/kg, GQD-GC group (GQD without Gan-Cao): rats, oral 16.5 g/kg, plasma; read-out: AUClast

{"molecule": "O=c1c(-c2ccc(O)cc2)coc2cc(O[C@@H]3O[C@H](CO)[C@@H](O)[C@H](O)[C@H]3O)cc(O)c12 [Compound 4, genistin]", "AUC(0-t) / ng·h/mL": 88.2}
{"molecule": "O=c1c(-c2ccc(O)cc2)coc2c([C@@H]3O[C@H](CO)[C@@H](O)[C@H](O)[C@H]3O)c(O)ccc12 [Compound 7, puerarin]", "AUC(0-t) / ng·h/mL": 5610}
{"molecule": "COc1c(O)cc(OC2OC(CO)C(O)C(O)C2O)c2c(=O)cc(-c3ccccc3)oc12 (centres unmarked) [Compound 13, wogonin 5-O-glucoside]", "AUC(0-t) / ng·h/mL": 28.2}
{"molecule": "COc1ccc2c(c1O)-c1c(O)c(OC)cc3c1[C@H](C2)[N+](C)(C)CC3 [Compound 19, magnoflorine]", "AUC(0-t) / ng·h/mL": 47.3}
{"molecule": "COc1ccc2cc3[n+](cc2c1OC)CCc1cc2c(cc1-3)OCO2 [Compound 24, berberine]", "AUC(0-t) / ng·h/mL": 149}
{"molecule": "COc1c(O)cc(O)c2c(=O)cc(-c3ccccc3)oc12 [Compound 8, wogonin]", "AUC(0-t) / ng·h/mL": 156}
{"molecule": "O=c1c(-c2ccc(O)cc2)coc2c(C3OC(COC4OCC(O)(CO)C4O)C(O)C(O)C3O)c(O)cc(O)c12 (centres unmarked) [Compound 6]", "AUC(0-t) / ng·h/mL": 96.3}
{"molecule": "COc1ccc(-c2coc3c(C4OC(COC5OCC(O)(CO)C5O)C(O)C(O)C4O)c(O)ccc3c2=O)cc1 (centres unmarked) [Compound 5]", "AUC(0-t) / ng·h/mL": 26}
{"molecule": "COc1c(O)c(O[C@@H]2O[C@H](C(=O)O)[C@@H](O)[C@H](O)[C@H]2O)cc2oc(-c3ccccc3)cc(=O)c12 [Compound 38, lateriflorein 7-O-glucuronide]", "AUC(0-t) / ng·h/mL": 599}
{"molecule": "COc1cc2c(cc1O)CC[n+]1cc3c(OC)c(OC)ccc3cc1-2 [Compound 23, jatrorrhizine]", "AUC(0-t) / ng·h/mL": 105}
{"molecule": "O=C(O)[C@H]1O[C@@H](Oc2cc(O)c3c(=O)cc(-c4ccccc4)oc3c2O)[C@H](O)[C@@H](O)[C@@H]1O [Compound 14, norwogonin 7-O-glucuronide]", "AUC(0-t) / ng·h/mL": 6030}
